Kindly supply the reported inhibition at 2 µM values for the records listed here.
Biological target: SMO (Mus musculus, UniProt P56726)
Construct: endogenous in cells; host or cells: C3H10T1/2 (ATCC #CCL-226)
Sequence (P56726 33-793): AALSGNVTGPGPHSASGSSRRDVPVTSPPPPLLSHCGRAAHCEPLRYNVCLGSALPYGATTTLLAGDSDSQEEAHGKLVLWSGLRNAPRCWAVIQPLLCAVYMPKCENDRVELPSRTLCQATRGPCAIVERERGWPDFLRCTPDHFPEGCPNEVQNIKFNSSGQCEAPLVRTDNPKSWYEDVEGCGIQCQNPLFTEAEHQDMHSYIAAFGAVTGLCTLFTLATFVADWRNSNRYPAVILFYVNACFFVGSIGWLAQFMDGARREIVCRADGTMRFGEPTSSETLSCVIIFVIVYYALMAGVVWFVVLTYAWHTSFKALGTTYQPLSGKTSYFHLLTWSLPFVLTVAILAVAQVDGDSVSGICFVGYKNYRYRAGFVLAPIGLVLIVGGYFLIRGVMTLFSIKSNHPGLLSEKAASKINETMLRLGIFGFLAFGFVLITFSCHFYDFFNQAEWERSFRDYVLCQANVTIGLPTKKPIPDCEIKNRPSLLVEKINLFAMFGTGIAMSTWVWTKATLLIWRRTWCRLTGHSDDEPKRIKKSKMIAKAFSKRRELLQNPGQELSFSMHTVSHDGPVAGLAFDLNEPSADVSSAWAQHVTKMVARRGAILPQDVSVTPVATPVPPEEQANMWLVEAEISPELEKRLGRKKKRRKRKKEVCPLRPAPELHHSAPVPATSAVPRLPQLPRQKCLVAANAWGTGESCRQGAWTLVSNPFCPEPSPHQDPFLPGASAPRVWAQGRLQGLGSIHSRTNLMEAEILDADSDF
Assay: Smoothened (SMO)/Sonic Hedgehog (SHh) Transient Transcriptional Activation Assay (Gli-luciferase reporter in C3H10T1/2 cells)
Type: cell-based, murine
Details: C3H 10T1/2, 2 μM test compound, SHh 250 ng/ml, 20 hrs, read-out: SMO CELL % INHIBITION @ 2 μM
Where a name gives a salt, the structure may show the parent alone.
Give bare numbers, in %.

CCCN1CCNC(=O)C1CC(=O)NC1CCCC(c2nc3ccccc3[nH]2)C1 (stereo not shown) | 86
N#Cc1ccc(NC(=O)NC23CCCC(c4nc5cc(Cl)ccc5[nH]4)(C2)C3)cc1 | 107
Cn1c(C23CCCC(NC(=O)c4ccc5c(c4)OC(F)(F)O5)(C2)C3)nc2ccccc21 | 94
O=C(N[C@@H]1CCC[C@H](c2nc3cc(C(F)(F)F)ccc3[nH]2)C1)c1ccc2c(c1)CCN(CC1CC1)C2 | 105
O=C(N[C@@H]1CCC[C@H](c2nc3ccccc3[nH]2)C1)[C@@H]1COc2ccccc2O1 | 81
O=C(Nc1ccc(F)c(C(F)(F)F)c1)NC12CCCC(c3nc4ccccc4[nH]3)(C1)C2 [Example 255, HCL] | 101

Please go through the list and note inhibition at 2 µM for each compound.
1. CN1[C@H](C(=O)N[C@@H]2CCC[C@H](c3nc4ccccc4[nH]3)C2)C[C@@H]2CCCC[C@@H]21 [Example 268, HCl]
2. COc1ccc2[nH]c([C@H]3CCC[C@@H](NC(=O)c4ccc5c(c4)OCCO5)C3)nc2c1 [Example 88, HCl]
3. O=C(NC12CCCC(c3nc4cc(C(F)(F)F)ccc4[nH]3)(C1)C2)c1ccc(C(=O)C(F)(F)F)cc1
4. CN1CCCc2cc(C(=O)N[C@@H]3CCC[C@H](c4nc5ccccc5[nH]4)C3)ccc21 [Example 200, HCl]
5. O=C(CNC(=O)c1ccccc1)NC1CCCC(c2nc3ccccc3[nH]2)C1 (stereo not shown)
6. CN1C(=O)COc2ccc(C(=O)N[C@H]3CCC[C@H](c4nc5ccccc5[nH]4)C3)cc21 [Example 249, HCl]
7. COCCNc1ccc(C(=O)N[C@@H]2CCC[C@H](c3nc4cc(C(F)(F)F)ccc4[nH]3)C2)cn1 [Example 292, HCl]
8. O=C(CCCC(=O)NC1CCCC(c2nc3ccccc3[nH]2)C1)Nc1ccccc1 (stereo not shown)

OUTPUT:
[50.7, 106, 105, 110, 102, 109, 104, 95]

Please go through the list and note inhibition at 2 µM for each compound.
1. COc1cc(OC)cc(C(=O)N[C@@H]2CCC[C@H](c3nc4cc(Cl)ccc4[nH]3)C2)c1 [Example 298, tartrate]
2. O=C1COc2ccc(C(=O)N[C@@H]3CCC[C@H](c4nc5ccccc5[nH]4)C3)cc2N1 [Example 173, HCl]
3. Cc1cn2cc(CCC(=O)NC3CCCC(c4nc5ccccc5[nH]4)C3)nc2s1 (stereo not shown)
4. CN1C[C@H](O)CC1C(=O)NC1CCCC(c2nc3ccccc3[nH]2)C1 (stereo partly shown)
5. O=C(N[C@@H]1CCC[C@H](c2nc3ccccc3[nH]2)C1)c1ccc2c(c1)CCCO2
6. O=C(N[C@@H]1CCC[C@H](c2nc3cc(C(F)(F)F)ccc3[nH]2)C1)c1n[nH]c2c1CCCC2 [Example 281, HCl]

OUTPUT:
1: 104; 2: 97; 3: 91; 4: 93; 5: 103; 6: 98.5

Please go through the list and note inhibition at 2 µM for each compound.
1. O=C1Cc2cc(C(=O)N[C@@H]3CCC[C@H](c4nc5cc(C(F)(F)F)ccc5[nH]4)C3)ccc2N1 [Example 286, HCl]
2. Cc1noc(C)c1NC(=O)N[C@@H]1CCC[C@H](c2nc3ccccc3[nH]2)C1
3. COc1cc(OC)cc(C(=O)NC23CCCC(c4nc5cc(Cl)ccc5[nH]4)(C2)C3)c1
4. CCn1nc(C(C)C)cc1C(=O)NC1CCCC(c2nc3ccccc3[nH]2)C1 (stereo not shown)
5. O=C(NC12CCCC(c3nc4cc(C(F)(F)F)ccc4[nH]3)(C1)C2)c1ccc2c(c1)OCCO2

OUTPUT:
1. 114
2. 48
3. 107
4. 61
5. 107
